The entries below come with measured log10 IC50 values attached.
Test system: TMD8 cells
Experiment: Cell proliferation inhibition in vitro, TMD8 cells by CCK-8 method
Assay type: cell-based
Conditions: Homo sapiens, 72 hours, read-out: Inhibitions of cell activities IC50 (nM) TMD8
Hi team, quick reminder: these entries are log10 of IC50 (nM).

{"MOLECULE": "CC#CC(=O)N1CC2CCCC2C1c1nc(-c2ccc(C(=O)Nc3ccccn3)cc2)c2c(N)nccn12 (stereo not drawn) [Example 4]", "log10 IC50": 0.32}
{"MOLECULE": "CC#CC(=O)N1[C@@H]2CC[C@@H](C2)[C@H]1c1nc(-c2ccc(C(=O)Nc3ccccn3)cc2)c2c(N)nccn12 [Example 23]", "log10 IC50": 0.04}
{"MOLECULE": "C=CC(=O)N1CC2CCCC2C1c1nc(-c2ccc(C(C)(O)c3ccccc3)cc2)c2c(N)nccn12 (stereo not drawn) [Example 77]", "log10 IC50": 0.40}

If you can, please state the reported log10 IC50 value of C=CC(=O)N1C2CC[C@@H](C2)C1c1nc(-c2ccc(Oc3ccccc3)cc2)c2c(N)nccn12 (stereo partly drawn) [Example 98] .
0.83

Which log10 IC50 is listed for C=CC(=O)N1C2CN[C@@H](C2)C1c1nc(-c2ccc(Oc3ccccc3)cc2)c2c(N)nccn12 (stereo partly drawn) [Example 106] ?
1.33

Given the entry C=CC(=O)N1C2C[C@@H](C1c1nc(-c3ccc(C(=O)Nc4ccccn4)cc3)c3c(N)nccn13)N(C)C2 (stereo partly drawn) [Example 15] , report its measured log10 IC50.
1.81

* * *

Biological target: BTK kinase (Homo sapiens (Human))
Sequence (Q06187 whole entry): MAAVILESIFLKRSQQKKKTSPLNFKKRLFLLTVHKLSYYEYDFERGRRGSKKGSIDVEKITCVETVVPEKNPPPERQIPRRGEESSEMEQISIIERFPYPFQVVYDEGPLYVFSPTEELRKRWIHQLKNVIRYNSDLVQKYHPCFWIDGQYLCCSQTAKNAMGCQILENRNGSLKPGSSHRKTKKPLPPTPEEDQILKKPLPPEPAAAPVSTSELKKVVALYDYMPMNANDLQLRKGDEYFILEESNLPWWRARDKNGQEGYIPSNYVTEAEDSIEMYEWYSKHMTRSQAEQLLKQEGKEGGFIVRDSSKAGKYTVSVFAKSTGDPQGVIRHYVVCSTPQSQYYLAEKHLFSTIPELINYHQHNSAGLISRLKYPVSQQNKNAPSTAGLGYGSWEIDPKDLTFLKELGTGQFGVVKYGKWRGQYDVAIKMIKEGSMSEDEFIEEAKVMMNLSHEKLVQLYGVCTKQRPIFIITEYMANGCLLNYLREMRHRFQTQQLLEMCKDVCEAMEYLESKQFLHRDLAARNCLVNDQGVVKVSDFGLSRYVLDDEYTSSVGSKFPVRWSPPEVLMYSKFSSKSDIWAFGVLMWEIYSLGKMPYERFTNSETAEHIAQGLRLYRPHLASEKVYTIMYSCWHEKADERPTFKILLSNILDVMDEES
In this section we review reported log10(IC50) values for a set of compounds.
Recall that a logarithmic scale is used here: each number is log10 of IC50 in nM.

Example entries begin here.
{"COMPOUND": "CC#CC(=O)N1C2CN[C@@H](C2)C1c1nc(-c2ccc(C(=O)Nc3cc(C(F)(F)F)ccn3)cc2)c2c(N)nccn12 (stereo partly shown) [Example 53]", "log10(IC50)": 0.26}
{"COMPOUND": "CN(C/C=C/C(=O)N1CC2CCCC2[C@H]1c1nc(-c2ccc(C(=O)Nc3ccccn3)cc2)c2c(N)nccn12)C1CC1 (stereo partly shown) [Example 115]", "log10(IC50)": 1.41}
{"COMPOUND": "CC#CC(=O)N1CCC2CC21c1nc(-c2ccc(Oc3ccccc3)cc2)c2c(N)nccn12 (stereo not shown) [Example 103]", "log10(IC50)": 2.43}
{"COMPOUND": "C=CC(=O)N1CC2C[C@H]1C(c1nc(-c3ccc(C(=O)Nc4ccccn4)cc3)c3c(N)nccn13)N2 (stereo partly shown) [Example 19]", "log10(IC50)": 2.60}
{"COMPOUND": "CC(C)/C=C(/C#N)C(=O)N1CC2(CC2)C[C@H]1c1nc(-c2ccc(C(=O)Nc3ccccn3)cc2)c2c(N)nccn12 [Example 116]", "log10(IC50)": 2.44}

log10(IC50) of C=CC(=O)N1C2CCC1(c1nc(-c3ccc(C(=O)Nc4ccccn4)cc3)c3c(N)nccn13)COC2 (stereo not shown) [Example 11] on BTK kinase (Homo sapiens (Human))?
0.41

Request body: readout log10(IC50), system BTK kinase (Homo sapiens (Human)), query CC#CC(=O)N1CCC2CC21c1nc(-c2ccc(C(C)(O)c3ccccc3)cc2)c2c(N)nccn12 (stereo not shown) [Example 83] . Return the value.
1.66
